Test system: N140
Experiment: qHTS profiling for inhibitors of Plasmodium falciparum proliferation (AID 504749); note: nearly all actives have a fitted effect of over 60% in size
Conditions: P. falciparum in erythrocytes, SYBR Green DNA, 72 h; series mostly up to 28.7 µM
Method: NIH National Institute of Allergy and Infectious Diseases [NIAID] NIH Chemical Genomics Center [NCGC] […] Because mature erythrocytes lack DNA, only Plasmodium-derived DNA is detected. NCGC Assay Protocol Summary: The SYBR Green viability assay was adapted from a method described previously (Plouffe et al., 2008). […] The following morning, fluorescence intensity at 485(14) nm excitation and 535(25) nm emission wavelengths was measured on an EnVision (Perkin Elmer) plate reader. […]
Results filed as inconclusive are left out. Activity calls are given as the source filed them. Calls come from the whole dose curve; as a rule, active = well fitted inhibition curve with a large enough effect; inconclusive = small, poorly fitted or top-dose-only effect; inactive = flat fitted curve, though single readings scatter.
A correct response names exactly one class from active, inactive

>  <COMPOUND>
CC(C)NCC(O)COc1ccc(COCCOC(C)C)cc1 (centres undefined)

>  <CLASS NAME>
inactive

$$$$
>  <COMPOUND>
CCOC(=O)N1CCC(=C2c3ccc(Cl)cc3CCc3cccnc32)CC1

>  <CLASS NAME>
active

$$$$
>  <COMPOUND>
NC(=O)c1cnccn1

>  <CLASS NAME>
inactive

$$$$
>  <COMPOUND>
CC(=O)Oc1ccccc1C(=O)O

>  <CLASS NAME>
inactive

$$$$
>  <COMPOUND>
Cc1ccccc1C(OCCN(C)C)c1ccccc1 (centres undefined)

>  <CLASS NAME>
active

$$$$
>  <COMPOUND>
O=NN(CCCl)C(=O)NCCCl

>  <CLASS NAME>
inactive

$$$$
>  <COMPOUND>
Nc1nc2c(ncn2COCCO)c(=O)[nH]1

>  <CLASS NAME>
inactive

$$$$
>  <COMPOUND>
NS(=O)(=O)c1cc2c(cc1Cl)NC=NS2(=O)=O

>  <CLASS NAME>
inactive

$$$$

Entry Nc1nc2ccc(OC(F)(F)F)cc2s1 : call = ?
inactive
